Where these numbers come from: the supplement of paper PMC10126150

# Tested on: ATP;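 also: ATP exposure 15 min at 22 °C before imaging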
# procedure text: switch fluorescence ratio, 500 uM ATP over buffer (Cy3 cluster intensity, sum of 5 cycles each) (fold (ratio)); higher = stronger signal-on switching upon ATP binding; sequences stand for … in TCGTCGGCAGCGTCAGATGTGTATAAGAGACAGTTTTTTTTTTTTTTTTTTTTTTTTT…TC
# applied conditions: aptamer strand: ATP DNA aptamer (quencher-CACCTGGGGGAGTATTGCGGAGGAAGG + anchor), 100 nM annealed; ATP concentration: 500 uM
measured quantity: switch fluorescence ratio
Returns: the value as a bare number; no unit string appended.

residue_sequence=GAAATCGGAT recorded_measurement=0.972
residue_sequence=GGTGTTTTCG recorded_measurement=0.998
residue_sequence=TGTCGGGGGG recorded_measurement=1.01
residue_sequence=GGTCTGTTGT recorded_measurement=0.99
residue_sequence=AAGTTGATTC recorded_measurement=0.979

Next sequence, switch fluorescence ratio to be filled in.
Task: Return reported switch fluorescence ratio. Input sequence: "CTTGGGGATG"
Result: 0.997

###

Known switch fluorescence ratio of a selection of sequences
# System: ATP;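 also: ATP exposure 15 min at 22 °C before imaging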
# procedure text: switch fluorescence ratio, 500 uM ATP over buffer (Cy3 cluster intensity, sum of 5 cycles each) (fold (ratio)); higher = stronger signal-on switching upon ATP binding; sequences stand for … in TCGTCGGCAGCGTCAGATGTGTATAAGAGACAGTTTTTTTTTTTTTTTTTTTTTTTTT…TC
# applied conditions: aptamer strand: ATP DNA aptamer (quencher-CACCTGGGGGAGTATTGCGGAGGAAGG + anchor), 100 nM annealed; ATP concentration: 500 uM
Returns: the value as a bare number; no unit string appended.

residue_sequence=AGTTTGATAG measured_quantity="switch fluorescence ratio" recorded_measurement=0.998
residue_sequence=ATGACTAAGA measured_quantity="switch fluorescence ratio" recorded_measurement=1.01
residue_sequence=ATGGACGTTT measured_quantity="switch fluorescence ratio" recorded_measurement=0.967
residue_sequence=AATCGGCGTC measured_quantity="switch fluorescence ratio" recorded_measurement=1.08
residue_sequence=GTTTGTAGGG measured_quantity="switch fluorescence ratio" recorded_measurement=0.988
residue_sequence=GTTTTTATGT measured_quantity="switch fluorescence ratio" recorded_measurement=0.973

Task: Return reported switch fluorescence ratio. Input sequence: "AGAGGTGGAG"
Result: 0.993

Task: Return reported switch fluorescence ratio. Input sequence: "TTTGAGCTGT"
Result: 1.02

Task: Return reported switch fluorescence ratio. Input sequence: "GGTGTCTGGG"
Result: 0.984

Task: Return reported switch fluorescence ratio. Input sequence: "GATTGTCCTT"
Result: 0.996

Task: Return reported switch fluorescence ratio. Input sequence: "AAGTGAGGCA"
Result: 0.963

Task: Return reported switch fluorescence ratio. Input sequence: "TGTTGTAGTC"
Result: 0.965

Task: Return reported switch fluorescence ratio. Input sequence: "CCGCAGGGTT"
Result: 1.51

###

# Tested on: ATP;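 also: ATP exposure 15 min at 22 °C before imaging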
# procedure text: switch fluorescence ratio, 500 uM ATP over buffer (Cy3 cluster intensity, sum of 5 cycles each) (fold (ratio)); higher = stronger signal-on switching upon ATP binding; sequences stand for … in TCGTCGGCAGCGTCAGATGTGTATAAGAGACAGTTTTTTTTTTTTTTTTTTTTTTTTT…TC
# applied conditions: aptamer strand: ATP DNA aptamer (quencher-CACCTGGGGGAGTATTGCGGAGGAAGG + anchor), 100 nM annealed; ATP concentration: 500 uM
measured quantity: switch fluorescence ratio
Returns: the value as a bare number; no unit string appended.

residue_sequence=GAGTTTTGAA measured_quantity="switch fluorescence ratio" recorded_measurement=0.997
residue_sequence=TTATTGGGAT measured_quantity="switch fluorescence ratio" recorded_measurement=0.981
residue_sequence=CGTGGAGGGG measured_quantity="switch fluorescence ratio" recorded_measurement=1.04
residue_sequence=CAGTAGAAAG measured_quantity="switch fluorescence ratio" recorded_measurement=1.01
residue_sequence=ACGGTTGAAT measured_quantity="switch fluorescence ratio" recorded_measurement=0.988

Task: Return reported switch fluorescence ratio. Input sequence: "GCGGGCGTTC"
Result: 1.02

Task: Return reported switch fluorescence ratio. Input sequence: "ATGCCGGGTG"
Result: 1.07

Task: Return reported switch fluorescence ratio. Input sequence: "AATTAATAAG"
Result: 1.01

###

# Tested on: ATP;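 also: ATP exposure 15 min at 22 °C before imaging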
# procedure text: switch fluorescence ratio, 500 uM ATP over buffer (Cy3 cluster intensity, sum of 5 cycles each) (fold (ratio)); higher = stronger signal-on switching upon ATP binding; sequences stand for … in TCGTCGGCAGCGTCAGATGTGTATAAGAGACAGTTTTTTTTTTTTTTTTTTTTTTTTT…TC
# applied conditions: aptamer strand: ATP DNA aptamer (quencher-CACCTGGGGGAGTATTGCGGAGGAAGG + anchor), 100 nM annealed; ATP concentration: 500 uM
measured quantity: switch fluorescence ratio
Returns: the value as a bare number; no unit string appended.

Consider the worked cases shown below.
residue_sequence=TCACGTTGGA measured_quantity="switch fluorescence ratio" recorded_measurement=1.01
residue_sequence=GATTGACCAT measured_quantity="switch fluorescence ratio" recorded_measurement=1.04
residue_sequence=TTAAGCTGGC measured_quantity="switch fluorescence ratio" recorded_measurement=1.05
residue_sequence=CTTTGTTATG measured_quantity="switch fluorescence ratio" recorded_measurement=0.991
residue_sequence=GCTGGGTGTG measured_quantity="switch fluorescence ratio" recorded_measurement=1.03
residue_sequence=TCGGGGGGTC measured_quantity="switch fluorescence ratio" recorded_measurement=0.981
residue_sequence=TTTATTACGC measured_quantity="switch fluorescence ratio" recorded_measurement=0.999
residue_sequence=ACGGAAAAAG measured_quantity="switch fluorescence ratio" recorded_measurement=1.01

Task: Return reported switch fluorescence ratio. Input sequence: "GGCCGTTCGT"
Result: 1.01

Task: Return reported switch fluorescence ratio. Input sequence: "GGGGCGGGGT"
Result: 1.01

Task: Return reported switch fluorescence ratio. Input sequence: "ACAGGGTCG"
Result: 0.948

Task: Return reported switch fluorescence ratio. Input sequence: "TAAAGTTAGC"
Result: 0.995

Task: Return reported switch fluorescence ratio. Input sequence: "GTTGACGGGG"
Result: 1.01

Task: Return reported switch fluorescence ratio. Input sequence: "TAATGATTGA"
Result: 0.985

###

# System: ATP;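 also: ATP exposure 15 min at 22 °C before imaging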
# procedure text: switch fluorescence ratio, 500 uM ATP over buffer (Cy3 cluster intensity, sum of 5 cycles each) (fold (ratio)); higher = stronger signal-on switching upon ATP binding; sequences stand for … in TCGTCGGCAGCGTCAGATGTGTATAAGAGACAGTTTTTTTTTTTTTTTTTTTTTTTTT…TC
# applied conditions: aptamer strand: ATP DNA aptamer (quencher-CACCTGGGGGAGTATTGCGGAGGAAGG + anchor), 100 nM annealed; ATP concentration: 500 uM
Known switch fluorescence ratio of a selection of sequences
Returns: the value as a bare number; no unit string appended.

Consider the worked cases shown below.
residue_sequence=TGCCGCAGGT recorded_measurement=1.01
residue_sequence=TCACGGTAAT recorded_measurement=1.16
residue_sequence=AATAGGTGTT recorded_measurement=1.07
residue_sequence=AATTCGTGCA recorded_measurement=1.03
residue_sequence=CTAGGAAGGT recorded_measurement=1.01
residue_sequence=TCATTTTGGG recorded_measurement=0.999
residue_sequence=TTGGTTGAAG recorded_measurement=1.02
residue_sequence=GTTTGCCTGT recorded_measurement=0.985
residue_sequence=TTCCGGATGG recorded_measurement=1.01
residue_sequence=AGGGTTGGG recorded_measurement=1.03

Next sequence, switch fluorescence ratio to be filled in.
Task: Return reported switch fluorescence ratio. Input sequence: "TTGGTTTTTT"
Result: 1

###

# System: ATP;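 also: ATP exposure 15 min at 22 °C before imaging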
# procedure text: switch fluorescence ratio, 500 uM ATP over buffer (Cy3 cluster intensity, sum of 5 cycles each) (fold (ratio)); higher = stronger signal-on switching upon ATP binding; sequences stand for … in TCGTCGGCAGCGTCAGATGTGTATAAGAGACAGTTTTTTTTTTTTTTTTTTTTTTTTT…TC
# applied conditions: aptamer strand: ATP DNA aptamer (quencher-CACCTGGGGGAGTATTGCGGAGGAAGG + anchor), 100 nM annealed; ATP concentration: 500 uM
switch fluorescence ratio vs 1: at or above is 1.0, below is 0.0.

Sample answers from the record:
residue_sequence=AATGCGTGCG class_name=1.0
residue_sequence=TATATATATG class_name=0.0
residue_sequence=TTCGAATATT class_name=1.0

Task: Check this sequence for switch fluorescence ratio at or above 1: "GCAATCTGGT"
Result: 1.0

Task: Check this sequence for switch fluorescence ratio at or above 1: "CGTGGTTTGC"
Result: 1.0

Task: Check this sequence for switch fluorescence ratio at or above 1: "TGGGGTAGCC"
Result: 0.0

Task: Check this sequence for switch fluorescence ratio at or above 1: "GGGGGTGCTT"
Result: 1.0

Task: Check this sequence for switch fluorescence ratio at or above 1: "AGGTTGGCTT"
Result: 0.0

Task: Check this sequence for switch fluorescence ratio at or above 1: "GGATGGTGCA"
Result: 0.0

Task: Check this sequence for switch fluorescence ratio at or above 1: "TCGGGTAAAC"
Result: 1.0

Task: Check this sequence for switch fluorescence ratio at or above 1: "ACGGGACGGA"
Result: 1.0
